ENDPOINT_LABEL: melting point

# COMPOUND, melting point
data = [
    ("Cc1c(NC(=O)c2ccc(OCC3CC3)cc2)ccc2cc(CNCC(C)(C)C)[nH]c12", "199 °C"),
    ("Cn1c(CNCC2CCOCC2)cc2cc(NC(=O)c3ccc(OC[C@@H]4CCCO4)cc3)ccc21", "157 to 158 °C"),
    ("Cc1c(CNCC2CCOCC2)n(C)c2c(C)c(NC(=O)c3ccc(OC[C@@H]4CCCO4)cc3)ccc12", "173 to 174 °C"),
    ("CC(C)CNCc1cc2cc(NC(=O)c3ccc(OCC4CCOC4)cc3)ccc2n1C (centres unmarked)", "125 to 126 °C"),
    ("Cc1c(NC(=O)c2ccc(C#CC3(O)CCC3)cc2)ccc2cc(CNCC3CCOCC3)n(C)c12", "202 to 204 °C"),
    ("Cc1c(NC(=O)c2ccc(OCC3CC3)cc2)ccc2[nH]c(CNC3CCCC3)cc12", "207 to 208 °C"),
    ("Cc1c(NC(=O)c2ccc(OC[C@@H]3CCCO3)cc2)ccc2cc(CNCC(C)C)n(C)c12", "183 °C"),
]

# evaluate next
Give its melting point value. Item: "Cc1c(NC(=O)c2ccc(OC[C@@H]3CCCO3)cc2)ccc2cc(CNCC(C)(C)O)n(C)c12"
197 to 200 °C
